# Target system: T1, human melanin concentrating hormone type 2 receptor (MCH-2R) (human, UniProt Q969V1 1-340)
# T1 construct: also called MCH-R2
# T1 sequence (Q969V1 whole entry, form in doubt): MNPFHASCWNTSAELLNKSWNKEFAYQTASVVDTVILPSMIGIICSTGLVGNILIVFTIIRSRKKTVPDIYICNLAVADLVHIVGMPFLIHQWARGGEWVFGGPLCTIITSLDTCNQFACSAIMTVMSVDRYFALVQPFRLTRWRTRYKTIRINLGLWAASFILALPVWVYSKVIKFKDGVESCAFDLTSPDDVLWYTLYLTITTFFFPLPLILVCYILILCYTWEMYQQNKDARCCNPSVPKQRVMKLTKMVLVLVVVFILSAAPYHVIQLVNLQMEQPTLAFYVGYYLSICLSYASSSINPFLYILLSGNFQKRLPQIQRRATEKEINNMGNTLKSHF
# Assay overview: SPA competition with [125I]-human MCH (Phe13, Tyr19) on receptor membranes
Bridges are numbered along the chain shown (N, C = ends). Where no end group is shown, it is not given here. [ ]: non-standard residue; d: D form. The star is where a group is joined. Pentanoyl(5-guanidino) = NC(N)=NCCCCC(=O)*; hArg = N=C(N)NCCCC[C@H](N)C(=O)O; Nle = CCCC[C@H](N)C(=O)O; Aib = CC(C)(N)C(=O)O
Recorded log10 of IC50 for the following binders
Response schema: value (number) is log10 of IC50 in units of nM.

| Binder | log10 of IC50 |
| --- | --- |
| RCMLGXVYRPC (Arg(NO2)^11 (nitroarginine), also called Arg(NO2)^11) [SEQ. ID. NO. 25] | 0.69 |
| RCMLLRVYRPC (also called Leu^10) [SEQ. ID. NO. 8] | 1.30 |
| RCMLGRVYRPX (D-Cys^16, also called D-Cys^16) [SEQ. ID. NO. 33] | 0.36 |
| Ac-RCMLG[Nle]VYRPC-NH2 (disulfide 2-11 (inferred), also called Nle^11) [SEQ. ID. NO. 26] | 0.95 |
| DFDMLRCMLGRVYRPCWQV (ligand, disulfide 7-16 (inferred), cyclic 19-amino acid peptide; also called hMCH; mammalian MCH) [human MCH (melanin-concentrating hormone), SEQ. ID. NO. 1] | -0.30 |

response.value for Ac-RCMLGRVYRPC-NH2 (disulfide 2-11 (inferred), positions numbered 6-16 as in hMCH) [truncated form of human MCH, SEQ. ID. NO. 2] (field: log10 of IC50) = 0.30

response.value for RCMLXRVYRPC (Phg^10 (phenylglycine), also called Phg^10) [SEQ. ID. NO. 12] (field: log10 of IC50) = 2.49

response.value for Ac-RCML[dA]RVYRPC-NH2 (disulfide 2-11; SMILES CSCC[C@@H]1NC(=O)[C@@H](NC(=O)[C@H](CCCNC(=N)N)NC(C)=O)CSSC[C@@H](C(N)=O)NC(=O)[C@@H]2CCCN2C(=O)[C@H](CCCNC(=N)N)NC(=O)[C@H](Cc2ccc(O)cc2)NC(=O)[C@H](C(C)C)NC(=O)[C@H](CCCNC(=N)N)NC(=O)[C@@H](C)NC(=O)[C@H](CC(C)C)NC1=O, also called D-Ala^10) [SEQ. ID. NO. 13] (field: log10 of IC50) = 0.51

response.value for Ac-RCML[dA][hArg]VYRPC-NH2 (disulfide 2-11 (inferred), also called D-Ala^10, Harg^11) [SEQ. ID. NO. 36] (field: log10 of IC50) = -0.05

response.value for [Pentanoyl(5-guanidino)]CML[dA]RVYRPC-NH2 (disulfide 2-11 (inferred); not fully specified, also called (?-NH2)-Arg^6, D-Ala^10) [SEQ. ID. NO. 34] (field: log10 of IC50) = 2.40

response.value for Ac-RCML[Aib]RVYRPC-NH2 (disulfide 2-11; SMILES CSCC[C@@H]1NC(=O)[C@@H](NC(=O)[C@H](CCCNC(=N)N)NC(C)=O)CSSC[C@@H](C(N)=O)NC(=O)[C@@H]2CCCN2C(=O)[C@H](CCCNC(=N)N)NC(=O)[C@H](Cc2ccc(O)cc2)NC(=O)[C@H](C(C)C)NC(=O)[C@H](CCCNC(=N)N)NC(=O)C(C)(C)NC(=O)[C@H](CC(C)C)NC1=O, also called Aib^10) [SEQ. ID. NO. 11] (field: log10 of IC50) = 0.34

response.value for Ac-RCML[dN]RVYRPC-NH2 (disulfide 2-11 (inferred), also called D-Asn^10) [SEQ. ID. NO. 18] (field: log10 of IC50) = 0.36

response.value for Ac-RCMLGRVFRPC-NH2 (disulfide 2-11; SMILES CSCC[C@@H]1NC(=O)[C@@H](NC(=O)[C@H](CCCNC(=N)N)NC(C)=O)CSSC[C@@H](C(N)=O)NC(=O)[C@@H]2CCCN2C(=O)[C@H](CCCNC(=N)N)NC(=O)[C@H](Cc2ccccc2)NC(=O)[C@H](C(C)C)NC(=O)[C@H](CCCNC(=N)N)NC(=O)CNC(=O)[C@H](CC(C)C)NC1=O, also called Phe^13) [SEQ. ID. NO. 27] (field: log10 of IC50) = 0.18

response.value for RCMLGRVXRPC (Cha^13 (2-cyclohexyl-alanine), also called Cha^13) [SEQ. ID. NO. 31] (field: log10 of IC50) = 0.95
